// data source = patent US20210221874A1

# maps each entry to its EC50
# studyTarget: T1, anthrax protective antigen, wild type PA83 (Bacillus anthracis, UniProt P13423 30-764)
# T1 construct: mature
# T1 sequence (P13423 30-764): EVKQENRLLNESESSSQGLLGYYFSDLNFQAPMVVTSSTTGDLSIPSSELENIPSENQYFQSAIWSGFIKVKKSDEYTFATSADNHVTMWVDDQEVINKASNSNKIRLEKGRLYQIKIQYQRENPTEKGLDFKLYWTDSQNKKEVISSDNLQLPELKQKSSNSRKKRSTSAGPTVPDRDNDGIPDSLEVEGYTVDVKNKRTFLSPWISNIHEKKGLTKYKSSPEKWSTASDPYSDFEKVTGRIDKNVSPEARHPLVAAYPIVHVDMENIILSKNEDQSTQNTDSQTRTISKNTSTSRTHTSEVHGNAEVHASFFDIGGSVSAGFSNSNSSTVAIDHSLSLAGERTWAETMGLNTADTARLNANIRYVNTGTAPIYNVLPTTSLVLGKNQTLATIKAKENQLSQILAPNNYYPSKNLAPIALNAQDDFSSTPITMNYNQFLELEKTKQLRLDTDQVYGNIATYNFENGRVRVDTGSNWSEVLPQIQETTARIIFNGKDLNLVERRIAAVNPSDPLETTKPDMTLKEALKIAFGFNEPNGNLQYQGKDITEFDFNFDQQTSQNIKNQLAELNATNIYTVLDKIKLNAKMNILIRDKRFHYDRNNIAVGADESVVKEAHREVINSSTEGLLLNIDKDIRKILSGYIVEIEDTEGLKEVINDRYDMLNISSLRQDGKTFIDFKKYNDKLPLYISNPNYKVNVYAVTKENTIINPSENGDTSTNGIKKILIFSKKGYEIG
# assayOverview: dilution ELISA on PA-coated plates

{"binder": "JIJ-E9 (VHH) VHH: QVQLVETGGLVQPGGSLRLSCAASRSTTATIYSMNWYRQAPGKQRELVAGMTSDGQTNYATSVKGRFTISRDNAKNTVYLLMNSLKLEDTAVYYCYVKPWRLQGWDYWGQGTQVTVSS", "EC50": "0.4 nM"}
{"binder": "JIK-B8 (VHH) VHH: SGGGLVQPGGSLGLSCVVASERSINNYGMGWYRQAPGKQRELVAQISSGGTTNYADSVEGRFTISRDNVKKMVHLQVNSLKPEDTAVYYCNSLLRTFSWGQGTQVTVSS", "EC50": "0.2 nM"}
{"binder": "JKO-B8 (VHH) VHH: QLQLAESGGGLVQPGGSLRLSCTASGIIFDYYSVDWYRQAPGKERELVATITGDGSPNYADSVKGRFTISRDNAKKTVYLQMNGLKPEETAVYYCHAKRTIGTKSEYWGQGTQVTVSS", "EC50": "> 100 nM"}
{"binder": "JKM-A6 (VHH) VHH: QLQLAETGGGLVQPGGSLRLSCAASGATLDTYIITWFRQAPGKEREAVSCINRSGSTTYSDSVKGRFTISRDNAQKTVYLQMNSLNPEDTAIYYCAADASYRTCGGSWWNWAYWGQGTQVTVSS", "EC50": "0.3 nM"}
{"binder": "JKH-C7 (VHH, also called JHK-C7) VHH: VQLVESGGGGLVQAGGSLRLSCAASGRTFSGYAMGWFRQAPGKEREFVADISWSGHNTYYGDSVKGRFTISRDTAKNTVYLQMNSLKPEDTAVYYCAAEGARTHLSDSYYFPGLWAEPPVGYWGQGTQVTVSS", "EC50": "2 nM"}
